- testedOn: Squalene monooxygenase (Rattus norvegicus, UniProt P52020)
- Sequence (P52020 whole entry): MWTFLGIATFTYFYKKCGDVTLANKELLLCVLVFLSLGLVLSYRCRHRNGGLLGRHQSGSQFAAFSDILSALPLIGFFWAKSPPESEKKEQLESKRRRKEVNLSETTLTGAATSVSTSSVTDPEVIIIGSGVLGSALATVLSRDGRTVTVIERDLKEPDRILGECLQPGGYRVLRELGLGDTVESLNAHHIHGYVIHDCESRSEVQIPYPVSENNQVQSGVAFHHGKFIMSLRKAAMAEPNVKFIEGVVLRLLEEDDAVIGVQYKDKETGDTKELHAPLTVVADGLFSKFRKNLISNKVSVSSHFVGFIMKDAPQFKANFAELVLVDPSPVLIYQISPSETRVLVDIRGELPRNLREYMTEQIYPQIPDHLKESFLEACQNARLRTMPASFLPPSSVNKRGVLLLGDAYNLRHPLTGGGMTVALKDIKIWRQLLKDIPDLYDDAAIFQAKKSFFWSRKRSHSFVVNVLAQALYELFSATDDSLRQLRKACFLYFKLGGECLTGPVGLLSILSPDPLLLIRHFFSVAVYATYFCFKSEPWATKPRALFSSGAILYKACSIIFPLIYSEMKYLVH
- protocol: Compound was evaluated for its inhibitory activity against recombinant rat SE(squalene epoxidase)
I'd be grateful if you could share measured pIC50 for these entries.
Answers are plain numbers, as −log10 of the molar value.

Previously resolved entries follow.
CC(C)=CCC/C(C)=C/CC/C(C)=C/CC/C(C)=C/COC(=O)c1cc(O)c(O)c(O)c1 | 5.35
CC(C)=CCC/C(C)=C/CC/C(C)=C/COC(=O)c1cc(O)c(O)c(O)c1 | 5.82
O=C(O[C@@H]1Cc2c(O)cc(O)cc2O[C@@H]1c1cc(O)c(O)c(O)c1)c1cc(O)c(O)c(O)c1 [EPIGALOCATECHIN GALLATE] | 6.16

Hi! Can you tell me pIC50 for each of these compounds?
1. CC(C)=CCC/C(C)=C/CC/C(C)=C/CC/C=C(\C)CC/C=C(\C)CCCOC(=O)c1cc(O)c(O)c(O)c1
2. O=C(OCCCCCCCCc1ccccc1)c1cc(O)c(O)c(O)c1
3. CC(C)=CCC/C(C)=C/COC(=O)c1cc(O)c(O)c(O)c1 [Geranyl gallate]
4. O=C(OCCCCCCCCCCc1ccccc1)c1cc(O)c(O)c(O)c1
5. CCCCCCCCCCCCOC(=O)c1cc(O)c(O)c(O)c1 [DODECYL GALLATE]
6. O=C(OCCCCCCc1ccccc1)c1cc(O)c(O)c(O)c1
7. O=C(OCCCCc1ccccc1)c1cc(O)c(O)c(O)c1

1. 5.29
2. 4.90
3. 4.90
4. 4.82
5. 7.21
6. 4.92
7. 4.21
